- Test system: SW620 cells (KRAS G12V)
- method-notes: Cell viability assay (Cell Counting Kit-8, 3-day)
- Type: cell-based, human
- study-conditions: Homo sapiens, SW-620; SW620, 72 hrs incubation
parameter: pIC50
pIC50 is a log-scale quantity: -log10 of the concentration expressed in molar.

Check out these entries, answers already filled in.
Prompt line: Any idea what pIC50 came out for CO[C@@H](C)c1ncc(N2CCN(C)CC2)cc1-c1c2c3cc(cc4c3n1CC(F)(F)C4)-c1csc(n1)C[C@H](NC(=O)[C@H]1[C@H](C)[C@@H]1C)C(=O)N1CCC[C@H](N1)C(=O)OCC(C)(C)C2 (atropisomer, axis not shown; (M)) on SW620 cells (KRAS G12V)?
Response line: 9.30

Prompt line: What value of pIC50 on SW620 cells (KRAS G12V) does CO[C@@H](C)c1ncc(N2CCN3CCCC[C@@H]3C2)cc1-c1c2c3cc(cc4c3n1CCC4)-c1csc(n1)C[C@H](NC(=O)[C@H]1C[C@@H]1c1cncnc1)C(=O)N1CCC[C@H](N1)C(=O)OCC(C)(C)C2 (atropisomer, axis not shown; (M)) have?
Response line: 9.40

Prompt line: API: value(readout= pIC50, system= SW620 cells (KRAS G12V), query= CO[C@@H](C)c1ncc(N2CCN3CCOC[C@@H]3C2)cc1-c1c2c3cc(cc4c3n1CCC4)-c1csc(n1)C[C@H](NC(=O)[C@H]1[C@@H]3COC[C@@H]31)C(=O)N1CCC[C@H](N1)C(=O)OCC(C)(C)C2 (atropisomer, axis not shown; (M)) )
Response line: 9.10

---
Prompt line: Lookup: pIC50 / SW620 cells (KRAS G12V) / CO[C@@H](C)c1ncc(N2CCN3CCOC[C@@H]3C2)cc1-c1c2c3cc(cc4c3n1CCC4)-c1csc(n1)C[C@H](NC(=O)[C@H]1C[C@@H]1c1cccnc1)C(=O)N1CCC[C@H](N1)C(=O)OCC(C)(C)C2 (atropisomer, axis not shown; (M))
Response line: 9.70

Prompt line: Recorded pIC50 for CO[C@@H](C)c1ncc(N2CCN(C)CC2)cc1-c1c2c3cc(cc4c3n1CCC4)-c1csc(n1)C[C@H](NC(=O)[C@H]1[C@H](C)[C@@H]1C)C(=O)N1CCC[C@H](N1)C(=O)OCC(C)(C)C2 (atropisomer, axis not shown; (M)) with SW620 cells (KRAS G12V), please?
Response line: 9.52

Prompt line: Quick check: pIC50 on SW620 cells (KRAS G12V), item CO[C@@H](C)c1ncc(N2CCN(C)CC2)cc1-c1c2c3cc(cc4c3n1CCC4)-c1csc(n1)C[C@H](NC(=O)[C@H]1C[C@@H]1C)C(=O)N1CCC[C@H](N1)C(=O)OCC(C)(C)C2 (atropisomer, axis not shown; (M)) ?
Response line: 8.92

Prompt line: // fetch SW620 cells (KRAS G12V) pIC50 for CO[C@@H](C)c1ncc(N2CCOCC2)cc1-c1c2c3cc(cc4c3n1CCO4)-c1csc(n1)C[C@H](NC(=O)[C@H]1C[C@@H]1c1cccnc1)C(=O)N1CCC[C@H](N1)C(=O)OCC(C)(C)C2 (atropisomer, axis not shown; (M))
Response line: 9.52

Prompt line: Query pIC50 on SW620 cells (KRAS G12V) for CO[C@@H](C)c1ncc(N2CCN(C)CC2)cc1-c1c2c3cc(cc4c3n1CCC4)-c1csc(n1)C[C@H](NC(=O)[C@H]1C[C@@H]1c1cncnc1)C(=O)N1CCC[C@H](N1)C(=O)OCC(C)(C)C2 (atropisomer, axis not shown; (M))
Response line: 9.05

* * *

- Tested on: SW620 cells (KRAS G12V)
- method-notes: Cell viability assay (Cell Counting Kit-8, 3-day)
- Type: cell-based, human
- study-conditions: Homo sapiens, SW-620; SW620, 72 hrs incubation
- Protocol: The purpose of this cellular assay was to determine the effects of test compounds on the proliferation of human cancer cell lines NCI-H358 (ATCC-CRL5807) cells, AGS (ATCC-CRL-1739) cells, SW620 (ATCC-CCL-227) over a 3-day treatment period by quantifying the amount of NADPH present at endpoint using Cell Counting Kit-8. Cells were seeded at 5,000 cells/well (NCI-H358), 2,000 cells/well (AGS) 2,000 cells/well (SW620) in 96-well assay plates (Corning-3699) and incubated overnight. […]
parameter: IC50 (nM)
A number alone suffices; assume nM.

These recorded examples may help you get a feel for the data.
Prompt line: What measured IC50 goes with CO[C@@H](C)c1ncc(N2CCN(CC(F)(F)F)CC2)cc1-c1c2c3cc(cc4c3n1CCC4)-c1csc(n1)C[C@H](NC(=O)[C@H]1C[C@@H]1c1cccnc1)C(=O)N1CCC[C@H](N1)C(=O)OCC(C)(C)C2 (atropisomer, axis not shown; (M)) ?
Response line: 0.8

Prompt line: Entry CO[C@@H](C)c1ncc(N2CCN(CC(F)(F)F)CC2)cc1-c1c2c3cc(cc4c3n1CCC4)-c1csc(n1)C[C@H](NC(=O)[C@H]1[C@@H]3COC[C@@H]31)C(=O)N1CCC[C@H](N1)C(=O)OCC(C)(C)C2 (atropisomer, axis not shown; (M)) has what IC50?
Response line: 0.7

Prompt line: For the compound shown here, CO[C@@H](C)c1ncc(N2CCN(C)CC2)cc1-c1c2c3cc(cc4c3n1CCC4)-c1csc(n1)C[C@H](NC(=O)[C@H]1C[C@@H]1c1ccncc1)C(=O)N1CCC[C@H](N1)C(=O)OCC(C)(C)C2 , give the reported IC50.
Response line: 1.5

Prompt line: Given the compound CO[C@@H](C)c1ncc(N2CCN(C)CC2)cc1-c1c2c3cc(cc4c3n1CCC4)-c1csc(n1)C[C@H](NC(=O)[C@@H]1C[C@H]1C1CC1)C(=O)N1CCC[C@H](N1)C(=O)OCC(C)(C)C2 (atropisomer, axis not shown; (M)) , what is its reported IC50?
Response line: 1.6

Prompt line: State the recorded IC50 for this entry: CO[C@@H](C)c1ncc(N2CCOCC2)cc1-c1c2c3cc(cc4c3n1C[C@@H](O)C4)-c1csc(n1)C[C@H](NC(=O)[C@H]1[C@H](C)[C@@H]1C)C(=O)N1CCC[C@H](N1)C(=O)OCC(C)(C)C2 (atropisomer, axis not shown; (M))
Response line: 1.2

Prompt line: Data request, read-out IC50, for CO[C@@H](C)c1ncc(N2CCN(C)CC2)cc1-c1c2c3cc(cc4c3n1CCO4)-c1csc(n1)C[C@H](NC(=O)C1CC1c1ccc(F)cc1)C(=O)N1CCC[C@H](N1)C(=O)OCC(C)(C)C2 (stereo partly drawn)
Response line: 7.4

Prompt line: Name the recorded IC50 for CO[C@@H](C)c1ncc(N2CCOCC2)cc1-c1c2c3cc(cc4c3n1CC(F)(F)C4)-c1csc(n1)C[C@H](NC(=O)[C@H]1[C@H](C)[C@@H]1C)C(=O)N1CCC[C@H](N1)C(=O)OCC(C)(C)C2 (atropisomer, axis not shown; (M)) .
Response line: 0.3

Prompt line: Requested field: IC50. Item: CO[C@@H](C)c1ncc(N2CCN(C)CC2)cc1-c1c2c3cc(cc4c3n1CCC4)-c1csc(n1)C[C@H](NC(=O)C1(C)CC1(F)F)C(=O)N1CCC[C@H](N1)C(=O)OCC(C)(C)C2 (stereo partly drawn)
Response line: 3.8

Prompt line: If you can, please state the reported IC50 value of CO[C@@H](C)c1ncc(N2CCN(C)CC2)cc1-c1c2c3cc(cc4c3n1CCO4)-c1csc(n1)C[C@H](NC(=O)[C@H]1C[C@@H]1c1cccnc1)C(=O)N1CCC[C@H](N1)C(=O)OCC(C)(C)C2 (atropisomer, axis not shown; (M)) .
Response line: 0.2

Prompt line: Quick one: IC50 of CO[C@@H](C)c1ncc(N2CCN(CCC(C)(C)OC)CC2)cc1-c1c2c3cc(cc4c3n1CCC4)-c1csc(n1)C[C@H](NC(=O)[C@H]1[C@H](C)[C@@H]1C)C(=O)N1CCC[C@H](N1)C(=O)OCC(C)(C)C2 (atropisomer, axis not shown; (M)) ?
Response line: 0.6

// moving on: another record for IC50
Prompt line: Which measured IC50 value corresponds to CO[C@@H](C)c1ncc(N2CCOCC2)cc1-c1c2c3cc(cc4c3n1CC(C)(C)O4)-c1csc(n1)C[C@H](NC(=O)[C@H]1C[C@@H]1C)C(=O)N1CCC[C@H](N1)C(=O)OCC(C)(C)C2 (atropisomer, axis not shown; (M)) ?
Response line: 18

* * *

- Tested on: phosphorylation of ERK, KRAS G12D in AGS cells
- method-notes: pERK inhibition assay
- Format: cell-based
- study-conditions: 4 hours
- Description: This assay is to measure the ability of test compounds in inhibiting the phosphorylation of ERK, the downstream signaling of KRAS G12C in NCI-H358 cells, KRAS G12D in AGS cells, and KRAS G12V in SW620. […] The amount of phosphor-ERK was determined using an antibody specific for phosphorylated form of ERK. […] 50 μL stop solution (abcam-ab 171529) were added, and then read the signal (OD450) by EnVision. IC50 was determined by fitting a 4-parameter sigmoidal concentration response model.
IC50 overview
Number in nM, nothing else.

Prompt line: // lookup IC50 for CO[C@@H](C)c1ncc(N2CCN(C)CC2)cc1-c1c2c3cc(cc4c3n1CCC4)-c1csc(n1)C[C@H](NC(=O)[C@H]1[C@H](C)[C@@H]1C)C(=O)N1CCC[C@H](N1)C(=O)OCC(C)(C)C2 (atropisomer, axis not shown; (M))
Response line: 0.9

Others:
Prompt line: What does the record list as IC50 for COC(C)c1ncc(N2CCN(C)CC2)cc1-c1c2c3cc(cc4c3n1CCO4)-c1csc(n1)CC(NC(=O)C1CC1C)C(=O)N1CCCC(N1)C(=O)OCC(C)(C)C2 (centres unmarked) ?
Response line: 2.7
